Tested on: NCI-H358
Test: Cytotoxicity against H 358 human lung cancer cell line
Format: functional, cell-based
measuredAttribute: IC50 (nM)
Respond numerically; units are nM and should not be typed.

Inquiry: What does the record list as IC50 for Cc1c2cnccc2c(CO)c2[nH]c3ccc(O)cc3c12 ?
Reply text: 1500

Inquiry: What does the record list as IC50 for Cc1c2ccncc2c(C)c2c1[nH]c1ccc(O)cc12 ?
Reply text: 5800

Inquiry: What does the record list as IC50 for CNC(=O)OCc1c2cnccc2c(C)c2[nH]c3ccc(OC)cc3c12 ?
Reply text: 90

Inquiry: What does the record list as IC50 for COc1ccc2[nH]c3c(C)c4ccnc(COC(C)=O)c4cc3c2c1 ?
Reply text: 2000

Inquiry: What does the record list as IC50 for CNC(=O)OCc1nccc2c(C)c3[nH]c4ccc(OC)cc4c3cc12 ?
Reply text: 110

Inquiry: What does the record list as IC50 for CNC(=O)OCc1c2ccncc2c(C)c2c1[nH]c1ccccc12 ?
Reply text: 190

Inquiry: What does the record list as IC50 for COc1ccc2[nH]c3c(C)c4ccnc(CO)c4cc3c2c1 ?
Reply text: 1300

Inquiry: What does the record list as IC50 for CNC(=O)OCc1c2ccncc2c(C)c2c1[nH]c1ccc(OC)cc12 ?
Reply text: 100
